- Assayed Target: T1, full-length Sudan GP (GPFL) (Sudan virus (SUDV), UniProt Q7T9D9 33-650)
- T1 construct: also called Sudan GPFL; GP(S)FL
- T1 sequence: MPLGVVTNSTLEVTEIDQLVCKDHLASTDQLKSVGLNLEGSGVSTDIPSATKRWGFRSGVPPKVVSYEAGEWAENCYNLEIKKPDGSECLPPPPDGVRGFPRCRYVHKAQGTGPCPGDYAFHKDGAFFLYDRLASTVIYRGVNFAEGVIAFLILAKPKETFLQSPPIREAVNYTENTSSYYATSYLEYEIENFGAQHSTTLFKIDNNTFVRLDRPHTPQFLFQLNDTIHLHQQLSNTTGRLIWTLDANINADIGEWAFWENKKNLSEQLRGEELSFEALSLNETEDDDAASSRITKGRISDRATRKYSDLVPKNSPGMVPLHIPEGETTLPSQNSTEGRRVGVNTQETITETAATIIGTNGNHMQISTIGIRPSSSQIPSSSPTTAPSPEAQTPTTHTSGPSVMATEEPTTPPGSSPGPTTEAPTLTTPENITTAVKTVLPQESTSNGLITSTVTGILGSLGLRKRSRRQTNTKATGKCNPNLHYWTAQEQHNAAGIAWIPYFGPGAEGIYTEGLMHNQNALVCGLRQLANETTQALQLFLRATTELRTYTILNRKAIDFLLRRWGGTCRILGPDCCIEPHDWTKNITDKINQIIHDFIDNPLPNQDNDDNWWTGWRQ
- Experimental Protocol: BLI, Fab, pH 5.3
// pKd lookup, one value per entry
pKd here is simply -log10 of the concentration when that concentration is written in mol/L.

Sample answers from the record:
{"Binder": "Fab generated from 338S (Fab, V domains shown) VH: EVQLVESGGGVVQPGRSLRLSCAASGFTFSQYGMHWVRQAPGKGLECVAVIWFDGSKKYYGDSVKGRFTISRDNSKNTLYLQMNSLRAEDTAVYFCARESLYYYDSGGHYYERGRIDYWGQGTLVTVSS VL: DIQMTQSPSSLSASVGDRVTITCRASQDISNFLAWFQQKPGKAPKSLIYAASSLLSGVPSKFSGSGSGTDFTLTISSLQPEDFATYYCQQYNSYPPTFGQGTKLEIK", "pKd": 7.63}
{"Binder": "Fab generated from 203S (Fab, V domains shown, also called 203S Fab) VH: QVQLVQSGAEVKKPGSSVKVSCKASGGTFSSYAISWVRQAPGQGLEWLGRILPALGLANYAQKYQDRVKITADKSTSTAYMELSRLGSEDTAVYYCARDRWVGAARRGQYFDYWGQGTQVTVSS VL: DIQMTQSPATLSASVGDRVTITCRASQSIGTWLAWYQQKPGKAPKLLIYDASSLESGVPPRFSGSGSETEFTLTISSLQPDDFATYYCHQYKSYSYTFGQGTKLEIK", "pKd": 6.93}
{"Binder": "Fab generated from 578S (Fab, V domains shown, also called 578S Fab) VH: EVQLVESGGGVVQPGRSLRLSCAASGFTFSSYELHWVRQAPGKGLEWVAVISYDGSSKYYADSLKGRFTISRDNSKNTLSLQMNSLRAEDTAMYYCVRQSEAYCSDGRCDWRRALDIWGQGTMVTVSP VL: DIQMTQSPSSLSASVGDRVTITCQASQDIKNYLNWYQQKPGKAPKLLIYDVSKLETGVPSRFSGSGSGTDFSFTISSLQPEDIATYYCQQYDNLPSYTFGQGTKLEIK", "pKd": 6.48}

From here, focus on the item given below.
State, in one line, measured pKd of Fab generated from 528S (Fab, V domains shown, also called 528S Fab) VH: EVQLAESGGGVVQPGRSLRLSCAASGFTFNSYGMHWVRQAPGKGLEWVAVIWDDGSKKYYADSVKGRFTISRDNSKNTLFLQMNSLRAEDTAVYYCARETIMFTFGEVIVSSRDNYYMDVWGKGTTVTVSS VL: EIVLTQSPATLSLSPGERATLSCRASQSVSNYLAWYQQKPGQAPRLLIYDASTRAIGIPARFSGVGSGTDFTLTISSLEPEDFAVYYCQQRSNWPPLTFGGGTKVEIK
8.25
